assayedTarget: PmST1 WT (sialidase activity of α2-3-sialyltransferase 1 in the presence of CMP) (Pasteurella multocida, UniProt Q15KI8)
Construct: made in house
testMethodNotes: biochemical
experimentalContext: read-out: percent inhibition against PmST1 WT
reportedEndpoint: inhibition at 8 µM
Write the quantity with the unit trailing the number.

Worked cases, inhibition at 8 µM given:
{"molecule": "CC(=O)N[C@@H]1C(N)C[C@](OCC2O[C@@H](Oc3ccc([N+](=O)[O-])cc3)C(O)C(O)[C@H]2O)(C(=O)O)OC1[C@H](O)[C@H](O)CO (some centres unmarked)", "inhibition at 8 µM": "35.7%"}
{"molecule": "CC(=O)NC1C[C@](OCC2O[C@@H](Oc3ccc([N+](=O)[O-])cc3)C(O)C(O)[C@H]2O)(C(=O)O)OC([C@H](O)[C@H](O)CO)[C@@H]1NC(C)=O (some centres unmarked)", "inhibition at 8 µM": "18.6%"}
{"molecule": "CC(=O)N[C@H]1[C@H]([C@H](O)[C@H](O)CO)O[C@@](OC[C@H]2O[C@@H](Oc3ccc([N+](=O)[O-])cc3)[C@H](O)[C@@H](O)[C@H]2O)(C(=O)O)C[C@@H]1NC(=N)N", "inhibition at 8 µM": "31.7%"}
{"molecule": "CC(=O)N[C@@H]1C(O)C[C@](OCC2O[C@@H](Oc3ccc([N+](=O)[O-])cc3)C(O)C(O)[C@H]2O)(C(=O)O)OC1[C@H](O)[C@H](O)CO (some centres unmarked) [Neu5Acα2-6GalβpNP, reference compound]", "inhibition at 8 µM": "14.6%"}

Attention now shifts to the item below.
input: Consider the molecule shown here: CC(=O)N[C@@H]1C(NC(=N)N)C[C@](OC2C(O)[C@H](Oc3ccc([N+](=O)[O-])cc3)OC(CO)[C@@H]2O)(C(=O)O)OC1[C@H](O)[C@H](O)CO (some centres unmarked) What is its recorded inhibition at 8 µM?
output: 26.1%

----------
Readings of inhibition at 8 µM for the listed compounds
assayedTarget: N2-Dar21 (IAV neuraminidase) (Influenza A virus)
testMethodNotes: Fluorescence-based inhibition assay (substrate Neu5Acα2-3GalβMU, β-galactosidase coupled)
Assay type: biochemical, influenza A virus A/Darwin/9/2021 (H3N2)
experimentalContext: read-out: percentage inhibition against N2-Dar21
API: value field is a number in %; no unit string.

Worked cases, inhibition at 8 µM given:
{"compound": "CC(=O)N[C@@H]1C(N)C[C@](OC2C(O)[C@H](Oc3ccc([N+](=O)[O-])cc3)OC(CO)[C@@H]2O)(C(=O)O)OC1[C@H](O)[C@H](O)CO (some centres unmarked)", "reportedEndpoint": "inhibition at 8 µM", "unitsLabel": "%", "recordedResult": 13.4}
{"compound": "CC(=O)N[C@@H]1C(O)C[C@](OC2C(O)[C@H](Oc3ccc([N+](=O)[O-])cc3)OC(CO)[C@@H]2O)(C(=O)O)OC1[C@H](O)[C@H](O)CO (some centres unmarked) [Neu5Acα2-3GalβpNP, reference compound]", "reportedEndpoint": "inhibition at 8 µM", "unitsLabel": "%", "recordedResult": 0.9}
{"compound": "CC(=O)N[C@@H]1C(O)C[C@](OCC2O[C@@H](Oc3ccc([N+](=O)[O-])cc3)C(O)C(O)[C@H]2O)(C(=O)O)OC1[C@H](O)[C@H](O)CO (some centres unmarked) [Neu5Acα2-6GalβpNP, reference compound]", "reportedEndpoint": "inhibition at 8 µM", "unitsLabel": "%", "recordedResult": 0.8}

input: Consider the compound shown here: CC(=O)NC1C[C@](OCC2O[C@@H](Oc3ccc([N+](=O)[O-])cc3)C(O)C(O)[C@H]2O)(C(=O)O)OC([C@H](O)[C@H](O)CO)[C@@H]1NC(C)=O (some centres unmarked) What is its recorded inhibition at 8 µM?
output: 0.4

input: Now consider CC(=O)NC1C[C@](OC2C(O)[C@H](Oc3ccc([N+](=O)[O-])cc3)OC(CO)[C@@H]2O)(C(=O)O)OC([C@H](O)[C@H](O)CO)[C@@H]1NC(C)=O (some centres unmarked) .
output: 3.2

input: Now consider CC(=O)N[C@@H]1C(NC(=N)N)C[C@](OC2C(O)[C@H](Oc3ccc([N+](=O)[O-])cc3)OC(CO)[C@@H]2O)(C(=O)O)OC1[C@H](O)[C@H](O)CO (some centres unmarked) .
output: 97

input: Now consider CC(=O)N[C@@H]1C(N)C[C@](OCC2O[C@@H](Oc3ccc([N+](=O)[O-])cc3)C(O)C(O)[C@H]2O)(C(=O)O)OC1[C@H](O)[C@H](O)CO (some centres unmarked) .
output: 2.9

input: Now consider CC(=O)N[C@H]1[C@H]([C@H](O)[C@H](O)CO)O[C@@](O[C@H]2[C@@H](O)[C@@H](CO)O[C@@H](Oc3ccc([N+](=O)[O-])cc3)[C@@H]2O)(C(=O)O)C[C@@H]1OC(C)=O [Neu4,5Ac2α2-3GalβpNP, Neu4,5Acα2-3GalβpNP, reference compound] .
output: 7.6

input: Now consider CC(=O)N[C@H]1[C@H]([C@H](O)[C@H](O)CO)O[C@@](OC[C@H]2O[C@@H](Oc3ccc([N+](=O)[O-])cc3)[C@H](O)[C@@H](O)[C@H]2O)(C(=O)O)C[C@@H]1NC(=N)N .
output: 81.5

input: Now consider CC(=O)N[C@@H]1C(N=[N+]=[N-])C[C@](OCC2O[C@@H](Oc3ccc([N+](=O)[O-])cc3)C(O)C(O)[C@H]2O)(C(=O)O)OC1[C@H](O)[C@H](O)CO (some centres unmarked) .
output: 1

input: Now consider CC(=O)N[C@@H]1C(N=[N+]=[N-])C[C@](OC2C(O)[C@H](Oc3ccc([N+](=O)[O-])cc3)OC(CO)[C@@H]2O)(C(=O)O)OC1[C@H](O)[C@H](O)CO (some centres unmarked) .
output: 0.8

----------
assayedTarget: SpNanA (sialidase) (Streptococcus pneumoniae, UniProt P62575)
Construct: made in house
testMethodNotes: Fluorescence-based inhibition assay (substrate Neu5Acα2-3GalβMU, β-galactosidase coupled)
Assay type: biochemical
experimentalContext: inhibitor 8.0 μM; Table 5
reportedEndpoint: percent inhibition against SpNanA (%)
API: value field is a number in %; no unit string.

{"compound": "CC(=O)N[C@H]1[C@H]([C@H](O)[C@H](O)CO)OC(C(=O)O)=C[C@@H]1O [Neu5Ac2en, 2,3-dehydro-N-acetylneuraminic acid, reference compound]", "unitsLabel": "%", "percent inhibition against SpNanA": 68.3}
{"compound": "CC(=O)N[C@H]1[C@H]([C@H](O)[C@H](O)CO)OC(C(=O)O)=C[C@@H]1NC(C)=O [4NAcNeu5Ac2en]", "unitsLabel": "%", "percent inhibition against SpNanA": 0.5}
{"compound": "CC(=O)N[C@H]1[C@H]([C@H](O)[C@H](O)CO)OC(C(=O)O)=C[C@@H]1N [4NH2Neu5Ac2en, reference compound]", "unitsLabel": "%", "percent inhibition against SpNanA": 7.9}

Attention now shifts to the item below.
input: Consider the compound shown here: CC(=O)N[C@H]1[C@H]([C@H](O)[C@H](O)CO)OC(C(=O)O)=C[C@@H]1N=[N+]=[N-] [Compound 4N3Neu5Ac2en, 4N3Neu5Ac2en] What is its recorded percent inhibition against SpNanA?
output: 3.0

----------
Readings of inhibition at 8 µM for the listed molecules
assayedTarget: N2-Kan17 (IAV neuraminidase) (Influenza A virus)
testMethodNotes: Fluorescence-based inhibition assay (substrate Neu5Acα2-3GalβMU, β-galactosidase coupled)
Format: biochemical, influenza A virus A/Kansas/14/2017 (H3N2)
experimentalContext: read-out: percentage inhibition against N2-Kan17
API: value field is a number in %; no unit string.

Worked cases, inhibition at 8 µM given:
{"molecule": "CC(=O)NC1C[C@](OC2C(O)[C@H](Oc3ccc([N+](=O)[O-])cc3)OC(CO)[C@@H]2O)(C(=O)O)OC([C@H](O)[C@H](O)CO)[C@@H]1NC(C)=O (some centres unmarked)", "reportedEndpoint": "inhibition at 8 µM", "unitsLabel": "%", "recordedResult": 2.1}
{"molecule": "CC(=O)N[C@@H]1C(N)C[C@](OC2C(O)[C@H](Oc3ccc([N+](=O)[O-])cc3)OC(CO)[C@@H]2O)(C(=O)O)OC1[C@H](O)[C@H](O)CO (some centres unmarked)", "reportedEndpoint": "inhibition at 8 µM", "unitsLabel": "%", "recordedResult": 0.5}
{"molecule": "CC(=O)N[C@H]1[C@H]([C@H](O)[C@H](O)CO)O[C@@](OC[C@H]2O[C@@H](Oc3ccc([N+](=O)[O-])cc3)[C@H](O)[C@@H](O)[C@H]2O)(C(=O)O)C[C@@H]1NC(=N)N", "reportedEndpoint": "inhibition at 8 µM", "unitsLabel": "%", "recordedResult": 78}
{"molecule": "CC(=O)NC1C[C@](OCC2O[C@@H](Oc3ccc([N+](=O)[O-])cc3)C(O)C(O)[C@H]2O)(C(=O)O)OC([C@H](O)[C@H](O)CO)[C@@H]1NC(C)=O (some centres unmarked)", "reportedEndpoint": "inhibition at 8 µM", "unitsLabel": "%", "recordedResult": 1}

input: Consider the molecule shown here: CC(=O)N[C@@H]1C(N)C[C@](OCC2O[C@@H](Oc3ccc([N+](=O)[O-])cc3)C(O)C(O)[C@H]2O)(C(=O)O)OC1[C@H](O)[C@H](O)CO (some centres unmarked) What is its recorded inhibition at 8 µM?
output: 1.5

input: Now consider CC(=O)N[C@@H]1C(N=[N+]=[N-])C[C@](OC2C(O)[C@H](Oc3ccc([N+](=O)[O-])cc3)OC(CO)[C@@H]2O)(C(=O)O)OC1[C@H](O)[C@H](O)CO (some centres unmarked) .
output: 0.1

input: Now consider CC(=O)N[C@@H]1C(O)C[C@](OCC2O[C@@H](Oc3ccc([N+](=O)[O-])cc3)C(O)C(O)[C@H]2O)(C(=O)O)OC1[C@H](O)[C@H](O)CO (some centres unmarked) [Neu5Acα2-6GalβpNP, reference compound] .
output: 0.4

Cited source for all entries: patent US20260242405A1
